These entries and their values trace back to patent US20070031832A1.

# Subject Of Test: anti-Der p 1 monoclonal antibody 2C7
# Assay Protocol: T7-DELFIA, 50 µl phage lysate on 2C7-coated wells, time resolved fluorometry
Provide the reported TRF of each item.
Answers are plain numbers, in TRF.

binder="GDPNSASGTA (peptide, not shown: large carriers) [2c7pan9]" measurement_unit=TRF recorded_value=17000
binder="GDPNSSTSPR (peptide, not shown: large carriers) [2c7pan8]" measurement_unit=TRF recorded_value=1900
binder="GDPNSSSVDKLGYWRVTESSNE (peptide, not shown: large carriers) [2c7pan42]" measurement_unit=TRF recorded_value=64000
binder="GDPRTHR (peptide, not shown: large carriers) [2c7pan26]" measurement_unit=TRF recorded_value=8500

Shifting focus to the binder that follows.
// TRF value for GDPNSRGKSREYLS (peptide, not shown: large carriers) [2c7pan14] : 1800
